The measured values listed here are drawn from the kinase profiling compilation of Christmann-Franck et al. (2016).

# TARGET_OR_SYSTEM: NIM1 (human)
# EXPERIMENT_SUMMARY: KINOMEscan competition binding
# CONDITION_CONTEXT: compound 10.0 µM
For each entry below, report its kinase still bound, per cent of control value.
One number for each entry, in %.

Quick batch: kinase still bound, per cent of control for everything below.
1. COc1ccc(N(C(=O)Oc2c(C)cccc2C)c2ccnc(Nc3ccc(N4CCN(C)CC4)cc3)n2)c(OC)c1
2. COc1cc(N2CCN(C)CC2)ccc1Nc1ncc2c(n1)N(C)c1ccccc1C(=O)N2C

[100, 100]

Quick batch: kinase still bound, per cent of control for everything below.
1. CCN1CCN(C(=O)Cc2ccc(Nc3ncc(F)c(Nc4ccc(C(=O)Nc5ccccc5Cl)cc4)n3)cc2)CC1
2. O=C(Nc1cccc(Nc2ncc(Br)c(NCCc3cnc[nH]3)n2)c1)N1CCCC1
3. COc1cc2ncn(-c3cc(OCc4ccccc4C(F)(F)F)c(C(N)=O)s3)c2cc1OC
4. O=C1NC(=O)/C(=C/c2ccc3nccc(-c4ccncc4)c3c2)S1
5. C[C@@H](Oc1cc(-c2cnn(C3CCNCC3)c2)cnc1N)c1c(Cl)ccc(F)c1Cl
6. CS(=O)(=O)N1CCN(Cc2cc3nc(-c4cccc5[nH]ncc45)nc(N4CCOCC4)c3s2)CC1
7. O=c1cc(N2CCOCC2)oc2c(-c3cccc4c3sc3ccccc34)cccc12

1: 79; 2: 0.05; 3: 88; 4: 71; 5: 12; 6: 100; 7: 100

* * *

# TARGET_OR_SYSTEM: FGFR1 (human)
# EXPERIMENT_SUMMARY: KINOMEscan competition binding
# CONDITION_CONTEXT: compound 10.0 µM
Simple rule here: kinase still bound, per cent of control less than 40% is satisfied, otherwise not satisfied.

Below are worked cases with known answers.
COCC(=O)NC/C=C/c1ccc2ncnc(Nc3ccc(Oc4ccc(C)nc4)c(C)c3)c2c1 | not satisfied
CNC(=O)c1cc(Oc2ccc(NC(=O)Nc3ccc(Cl)c(C(F)(F)F)c3)cc2)ccn1 | satisfied
COc1ccc(N(C(=O)Oc2c(C)cccc2C)c2ccnc(Nc3ccc(N4CCN(C)CC4)cc3)n2)c(OC)c1 | satisfied

# evaluate next
A record lists "CN(C)C/C=C/C(=O)Nc1ccc(C(=O)Nc2cccc(Nc3nccc(-c4cccnc4)n3)c2)cc1" . Is its kinase still bound, per cent of control below 40%? not satisfied

* * *

# TARGET_OR_SYSTEM: TGFBR2 (human)
# EXPERIMENT_SUMMARY: KINOMEscan competition binding
# CONDITION_CONTEXT: compound 10.0 µM
QUANTITY: kinase still bound, per cent of control (%)
Answers are plain numbers, in %.

Previously resolved entries follow.
C=CC(=O)Nc1ccc(CN(C(=O)Nc2c(Cl)c(OC)cc(OC)c2Cl)c2cc(Nc3ccc(N4CCN(C)CC4)cc3)ncn2)cc1 | 100
COc1cc(N2CCN(C)CC2)ccc1Nc1ncc2c(n1)N(C)c1ccccc1C(=O)N2C | 100
Cc1n[nH]c2ccc(-c3cncc(OC[C@@H](N)Cc4c[nH]c5ccccc45)c3)cc12 | 100
COc1cc2ncnc(-n3nc(-c4ccccn4)nc3N)c2cc1OC | 9
N#CCNC(=O)c1ccc(-c2ccnc(Nc3ccc(N4CCOCC4)cc3)n2)cc1 | 89
O=c1cc(N2CCOCC2)oc2c(-c3cccc4c3sc3ccccc34)cccc12 | 89
C=CC(=O)Nc1cc(-n2c(=O)ccc3cnc4ccc(-c5cn[nH]c5)cc4c32)ccc1C | 82
CNC(=O)c1cc(Oc2ccc(NC(=O)Nc3ccc(Cl)c(C(F)(F)F)c3)cc2)ccn1 | 35

Quick batch: kinase still bound, per cent of control for everything below.
1. CNC(=O)c1ccc(Nc2cc(Nc3ccccc3S(=O)(=O)C(C)C)c3cc[nH]c3n2)nc1
2. COc1cc(C(=O)N2CCC(N3CCN(C)CC3)CC2)ccc1Nc1ncc2c(n1)N(C)c1ccccc1C(=O)N2C
3. COc1ccc(N(C(=O)Oc2c(C)cccc2C)c2ccnc(Nc3ccc(N4CCN(C)CC4)cc3)n2)c(OC)c1
4. COc1cc2ncn(-c3cc(OCc4ccccc4C(F)(F)F)c(C(N)=O)s3)c2cc1OC
5. CN(C)C/C=C/C(=O)Nc1ccc(C(=O)Nc2cccc(Nc3nccc(-c4cccnc4)n3)c2)cc1
6. CCN(CC)CCCCNc1ncc2cc(-c3cc(OC)cc(OC)c3)c(NC(=O)NC(C)(C)C)nc2n1
7. C[C@@H](Oc1cc(-c2cnn(C3CCNCC3)c2)cnc1N)c1c(Cl)ccc(F)c1Cl

[100, 100, 16, 100, 50, 100, 100]

Quick batch: kinase still bound, per cent of control for everything below.
1. NC(=O)Nc1cc(-c2cccc(F)c2)sc1C(=O)N[C@@H]1CCCNC1
2. CCN(CC)CCCCNc1ncc2c(n1)N(C)C(=O)N(c1c(Cl)c(OC)cc(OC)c1Cl)C2

[2.4, 100]

* * *

# TARGET_OR_SYSTEM: PIP5K1C (human)
# EXPERIMENT_SUMMARY: KINOMEscan competition binding
# CONDITION_CONTEXT: compound 10.0 µM
For each entry below, report its kinase still bound, per cent of control value.
Numbers only, in %.

COCC(=O)NC/C=C/c1ccc2ncnc(Nc3ccc(Oc4ccc(C)nc4)c(C)c3)c2c1 | 93
O=c1cc(N2CCOCC2)oc2c(-c3cccc4c3sc3ccccc34)cccc12 | 61
CNC(=O)c1cc(Oc2ccc(NC(=O)Nc3ccc(Cl)c(C(F)(F)F)c3)cc2)ccn1 | 87
COc1cc2ncnc(-n3nc(-c4ccccn4)nc3N)c2cc1OC | 5
N#CCNC(=O)c1ccc(-c2ccnc(Nc3ccc(N4CCOCC4)cc3)n2)cc1 | 54

Pending compound:
Entry under review: "COc1ccc(N(C(=O)Oc2c(C)cccc2C)c2ccnc(Nc3ccc(N4CCN(C)CC4)cc3)n2)c(OC)c1" . Reported kinase still bound, per cent of control? 96

* * *

For each entry below, report its kinase still bound, per cent of control value.
# TARGET_OR_SYSTEM: MYLK2 (human) (UniProt Q9H1R3)
# Sequence (Q9H1R3 whole entry, looked up): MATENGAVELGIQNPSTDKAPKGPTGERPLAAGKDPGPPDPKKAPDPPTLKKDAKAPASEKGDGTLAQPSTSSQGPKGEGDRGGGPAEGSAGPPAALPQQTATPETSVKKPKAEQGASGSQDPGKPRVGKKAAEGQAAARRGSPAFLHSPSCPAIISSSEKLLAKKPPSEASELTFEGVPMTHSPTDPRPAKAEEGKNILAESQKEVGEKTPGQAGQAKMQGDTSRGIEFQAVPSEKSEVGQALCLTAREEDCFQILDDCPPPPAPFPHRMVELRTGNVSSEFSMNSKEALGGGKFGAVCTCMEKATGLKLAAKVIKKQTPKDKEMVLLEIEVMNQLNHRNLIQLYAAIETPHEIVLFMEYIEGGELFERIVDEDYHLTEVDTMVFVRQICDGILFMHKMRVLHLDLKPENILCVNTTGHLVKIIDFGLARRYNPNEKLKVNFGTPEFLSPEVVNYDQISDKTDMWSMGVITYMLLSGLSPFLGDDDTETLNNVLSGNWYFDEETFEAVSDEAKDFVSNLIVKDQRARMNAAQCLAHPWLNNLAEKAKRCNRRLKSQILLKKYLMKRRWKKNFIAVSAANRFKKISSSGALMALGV
# EXPERIMENT_SUMMARY: KINOMEscan competition binding
# CONDITION_CONTEXT: compound 10.0 µM
Numbers only, in %.

Previously resolved entries follow.
C[C@@H](Oc1cc(-c2cnn(C3CCNCC3)c2)cnc1N)c1c(Cl)ccc(F)c1Cl | 73
O=c1cc(N2CCOCC2)oc2c(-c3cccc4c3sc3ccccc34)cccc12 | 100
COc1cc(N2CCN(C)CC2)ccc1Nc1ncc2c(n1)N(C)c1ccccc1C(=O)N2C | 100

Quick batch: kinase still bound, per cent of control for everything below.
1. COc1ccc(N(C(=O)Oc2c(C)cccc2C)c2ccnc(Nc3ccc(N4CCN(C)CC4)cc3)n2)c(OC)c1
2. COc1cc(C(=O)N2CCC(N3CCN(C)CC3)CC2)ccc1Nc1ncc2c(n1)N(C)c1ccccc1C(=O)N2C
3. CNC(=O)c1ccc(Nc2cc(Nc3ccccc3S(=O)(=O)C(C)C)c3cc[nH]c3n2)nc1
4. C=CC(=O)Nc1ccc(CN(C(=O)Nc2c(Cl)c(OC)cc(OC)c2Cl)c2cc(Nc3ccc(N4CCN(C)CC4)cc3)ncn2)cc1
5. CNC(=O)c1cc(Oc2ccc(NC(=O)Nc3ccc(Cl)c(C(F)(F)F)c3)cc2)ccn1
6. CN(C)C/C=C/C(=O)Nc1ccc(C(=O)Nc2cccc(Nc3nccc(-c4cccnc4)n3)c2)cc1
7. O=C(Nc1cccc(Nc2ncc(Br)c(NCCc3cnc[nH]3)n2)c1)N1CCCC1

0.95
98
100
100
43
53
0.35

* * *

# TARGET_OR_SYSTEM: JAK1 JH1 catalytic (human)
# EXPERIMENT_SUMMARY: KINOMEscan competition binding
# CONDITION_CONTEXT: compound 10.0 µM
For each entry below, report its kinase still bound, per cent of control value.
Give bare numbers, in %.

COc1cc(N2CCN(C)CC2)ccc1Nc1ncc2c(n1)N(C)c1ccccc1C(=O)N2C | 100
C=CC(=O)Nc1cc(-n2c(=O)ccc3cnc4ccc(-c5cn[nH]c5)cc4c32)ccc1C | 97
COc1cc(C(=O)N2CCC(N3CCN(C)CC3)CC2)ccc1Nc1ncc2c(n1)N(C)c1ccccc1C(=O)N2C | 100

Quick batch: kinase still bound, per cent of control for everything below.
1. COc1cc2ncnc(-n3nc(-c4ccccn4)nc3N)c2cc1OC
2. COCC(=O)NC/C=C/c1ccc2ncnc(Nc3ccc(Oc4ccc(C)nc4)c(C)c3)c2c1

100
100

* * *

# Test system: EGFR (human), P00533 [747-751 del / S ins]
# Sequence (P00533 whole entry, looked up, stated change not applied): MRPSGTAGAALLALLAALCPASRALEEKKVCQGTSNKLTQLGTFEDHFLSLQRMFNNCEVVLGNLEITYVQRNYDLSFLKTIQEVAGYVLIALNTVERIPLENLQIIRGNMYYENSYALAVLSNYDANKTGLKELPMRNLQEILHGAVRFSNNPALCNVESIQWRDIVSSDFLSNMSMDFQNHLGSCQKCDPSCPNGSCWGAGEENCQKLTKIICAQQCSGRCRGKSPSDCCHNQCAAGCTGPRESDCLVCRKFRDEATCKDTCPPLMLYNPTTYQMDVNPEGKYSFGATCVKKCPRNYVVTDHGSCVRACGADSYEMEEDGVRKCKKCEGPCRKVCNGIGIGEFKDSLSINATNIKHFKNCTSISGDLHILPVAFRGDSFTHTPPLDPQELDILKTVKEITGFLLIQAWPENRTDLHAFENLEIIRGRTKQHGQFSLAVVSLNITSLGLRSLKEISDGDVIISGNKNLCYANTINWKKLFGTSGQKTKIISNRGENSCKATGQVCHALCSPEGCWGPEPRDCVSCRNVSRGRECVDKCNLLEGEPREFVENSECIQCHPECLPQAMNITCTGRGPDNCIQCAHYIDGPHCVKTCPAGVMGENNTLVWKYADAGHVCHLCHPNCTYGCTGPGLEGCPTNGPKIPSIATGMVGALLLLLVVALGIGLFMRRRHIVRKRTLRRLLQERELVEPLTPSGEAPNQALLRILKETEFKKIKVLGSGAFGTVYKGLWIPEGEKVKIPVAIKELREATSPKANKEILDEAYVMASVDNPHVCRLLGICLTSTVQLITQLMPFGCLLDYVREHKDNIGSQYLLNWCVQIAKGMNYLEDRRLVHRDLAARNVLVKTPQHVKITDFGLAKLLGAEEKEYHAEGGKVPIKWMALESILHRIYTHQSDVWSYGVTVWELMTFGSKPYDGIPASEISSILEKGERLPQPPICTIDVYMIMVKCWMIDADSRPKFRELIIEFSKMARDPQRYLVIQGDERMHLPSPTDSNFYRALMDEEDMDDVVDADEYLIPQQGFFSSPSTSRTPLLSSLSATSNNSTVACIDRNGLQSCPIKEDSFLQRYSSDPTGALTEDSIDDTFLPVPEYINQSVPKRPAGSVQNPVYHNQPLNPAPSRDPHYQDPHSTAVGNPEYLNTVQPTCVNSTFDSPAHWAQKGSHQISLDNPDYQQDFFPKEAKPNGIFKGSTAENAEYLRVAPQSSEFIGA
# EXPERIMENT_SUMMARY: KINOMEscan competition binding
# CONDITION_CONTEXT: compound 10.0 µM
QUANTITY: kinase still bound, per cent of control (%)
Numbers only, in %.

Previously resolved entries follow.
N#Cc1cc(-c2ccnc(Nc3ccc(-n4cnc(-c5cccnc5)n4)cc3)n2)cc(N2CCOCC2)c1 | 79
Nc1ccc(-c2ccc3ncc4ccc(=O)n(-c5cccc(C(F)(F)F)c5)c4c3c2)cn1 | 67
Cc1ccc2nc(NCCN)c3ncc(C)n3c2c1 | 100
Cc1cn(-c2cc(C(=O)Nc3ccc(C)c(NC(=O)c4ccno4)c3)cc(C(F)(F)F)c2)cn1 | 100
OCCCNc1cc(-c2ccnc(Nc3cccc(Cl)c3)n2)ccn1 | 100
COc1cc(C(=O)NC2CCN(C)CC2)ccc1Nc1ncc2c(n1)N(C1CCCC1)CCC(=O)N2C(C)C | 100
COc1ccc(N(C(=O)Oc2c(C)cccc2C)c2ccnc(Nc3ccc(N4CCN(C)CC4)cc3)n2)c(OC)c1 | 0
C[C@@H](Oc1cc(-n2cnc3ccc(CN4CCN(C)CC4)cc32)sc1C(N)=O)c1ccccc1C(F)(F)F | 100
Cc1ccc(C(=O)Nc2cccc(C(F)(F)F)c2)cc1Nc1cncc(C(N)=O)c1 | 100
O=c1[nH]c2ccccc2n1C1CCN(Cc2ccc(-c3nc4cc5[nH]cnc5cc4nc3-c3ccccc3)cc2)CC1 | 92

Quick batch: kinase still bound, per cent of control for everything below.
1. CC1=C(C(=O)Nc2cc3cn[nH]c3cc2F)C(c2ccc(C(F)(F)F)cc2)CC(=O)N1 (stereo not drawn)
2. O=C(NC1CC1)c1cccc(-c2ccc3c(NC(=O)C4CC4)n[nH]c3c2)c1
3. N#CCNC(=O)c1ccc(-c2ccnc(Nc3ccc(N4CCOCC4)cc3)n2)cc1
4. C=CC(=O)Nc1ccc(CN(C(=O)Nc2c(Cl)c(OC)cc(OC)c2Cl)c2cc(Nc3ccc(N4CCN(C)CC4)cc3)ncn2)cc1
5. COc1cc(C(=O)N2CCC(N3CCN(C)CC3)CC2)ccc1Nc1ncc2c(n1)N(C)c1ccccc1C(=O)N2C
6. CCN1CCN(Cc2ccc(NC(=O)c3ccc(C)c(/C=C/c4cnc5[nH]ccc5c4OC)c3)cc2C(F)(F)F)CC1
7. CCN(CC)CCCCNc1ncc2c(n1)N(C)C(=O)N(c1c(Cl)c(OC)cc(OC)c1Cl)C2
8. COc1cc(C(=O)NC2CCN(C)CC2)ccc1Nc1ncc2c(n1)N(C1CCCC1)C(C)CC(=O)N2C (stereo not drawn)

1: 81; 2: 74; 3: 70; 4: 0.65; 5: 100; 6: 0; 7: 100; 8: 100
